The reported numbers originate from PubChem BioAssay (NCI).

growth overview
System: SNB-75 CNS
Assay: NCI-60 one-dose screen, 48 h (100 = growth as untreated, 0 = no growth, -100 = all killed)
Conditions: 10 µM unless noted
Description: Growth inhibition of the SNB-75 human tumor cell line is measured as a screen for anti-cancer activity. Cells are grown in 96 well plates and exposed to the test compound for 48 hours. Compounds are tested at a single concentration, which is 10^-5 M for most compounds. The reported endpoint is percent growth (GI% or GIPRCNT), where numbers from 0 - 100% represent growth inhibition, and numbers from -100% - 0 represent cell death. For example, a value of 40 represents 60% growth inhibition. […]
The panel holds about 83,000 compounds, 20% with a hit somewhere; the sample as a whole holds those more often. Active and inactive are the calls of the source. How the source made its calls: active means growth percent below 10; inactive means the rest.
metric: growth

molecule	metric	test-value
Clc1ccc(-c2nc(-c3cccs3)no2)c(Cl)c1	growth	63.5% (inactive)
COc1ccc(-n2nc3c(c2-c2ccc(OC)c(OC)c2)-c2oncc2CC3)cc1	growth	94.2% (inactive)
COC(=O)CC1=C(C)/C(=C/c2[nH]c(-c3ccc[nH]3)cc2OC)N=C1C	growth	-38.6% (active)
COc1ncc(-c2ccc3nccc(C#CCN4CCN(S(C)(=O)=O)CC4)c3c2)cc1NS(=O)(=O)c1ccc(F)cc1F	growth	-11.4% (active)
CCN1C[C@@H](C)n2c(c(O)c3c(=O)n(Cc4ccc(F)c(Cl)c4)nc(C(=O)NC)c32)C1=O	growth	20.2% (inactive)
CO[C@H]1CC(O[C@@H]2/C(C)=C/C[C@@H]3C[C@@H](C[C@]4(CC[C@H](C)[C@@H](C5CCCCC5)O4)O3)OC(=O)[C@@H]3C=C(C)/C(=N/O)[C@H]4OC/C(=C\C=C\[C@@H]2C)[C@]43O)O[C@@H](C)C1O (stereo partly specified)	growth	-90.4% (active)
COc1cc2c(c(OC)c1OC)CCc1cnoc1-2	growth	71.7% (inactive)
O=c1ccn(C2CCCO2)c(=O)[nH]1 (stereo unspecified)	growth	91.9% (inactive)
Nc1ccc(C2=Nc3cccc4cccc(c34)S2)cc1	growth	71.4% (inactive)
CCN(CC)CCCNCCCNc1cc(OC)cc2cccnc12	growth	82.8% (inactive)
Cc1cc2c(cc1[N+](=O)[O-])NC(CNC(C)C)CC2 (stereo unspecified)	growth	67.7% (inactive)
CN(C)CCCN1c2nc3ccccc3cc2Sc2cc3ccccc3nc21	growth	9.61% (active)
c1ccc(-n2nnnc2-c2cccc3ccccc23)cc1	growth	-7.18% (active)
CCCCCCC(C)(O)c1ccccc1 (stereo unspecified)	growth	90.6% (inactive)
O=C(C(=O)N1CCOCC1)c1ccc(OC2OC(CO)C(O)C(O)C2O)cc1 (stereo unspecified)	growth	89.5% (inactive)
CC(=O)NCCSC(=O)C(=O)SCCNC(C)=O	growth	93% (inactive)
O=C1OC(c2ccc(-c3ccccc3)cc2)=C/C1=C/c1cccs1	growth	95.7% (inactive)
C=Cc1nn2c(CCC(=O)c3nc4ccccc4[nH]3)nnc2s1	growth	110% (inactive)
O=Cc1c[nH]c2ccc(NC(=O)OCc3ccccc3)cc12	growth	87.1% (inactive)
Cc1cc(NC(=O)Nc2cccc3ccccc23)no1	growth	91.4% (inactive)
Cc1scc2c1N(C(=O)CN1CCN(C)CC1)c1ccccc1NC2=O	growth	110% (inactive)
O=C1/C(=C/c2ccc3cccc(Cl)c3n2)SC(=S)N1CCc1ccc(O)cc1	growth	50.7% (inactive)
O=C(Cn1ccnc1)NC(c1ccccc1)c1ccccc1	growth	73.4% (inactive)
COc1ccc(Nc2ccnc(NCCCNc3ccnc4cc(Cl)ccc34)n2)cc1	growth	-75.5% (active)
Clc1ccc([C@@H]2C[C@@H]3Cc4cc(Br)c5ccccc5c4N2O3)c(Cl)c1	growth	56.2% (inactive)
CCN1C2=C(SC(=S)C1=C1SC(C(=O)OC)=C(C(=O)OC)S1)SC(=Nc1ccc(OC)cc1)C2=O	growth	-16.1% (active)
O=[N+]([O-])c1ccc(N/N=C/c2c(O)ccc3ccccc23)nc1	growth	69.3% (inactive)
CSc1ncc2ncn(C3OC(CO)C(O)C3O)c2n1 (stereo unspecified)	growth	96% (inactive)
O=C(CN1CCCCC1)Sc1nnc2sc3ccccc3n12	growth	74.6% (inactive)
Cc1nn(-c2ccccc2)c2nc(Cl)c(/C=C/C(=O)c3ccccc3)c(-c3ccccc3)c12	growth	89.4% (inactive)
O=C1Nc2ccc(F)cc2/C1=C/c1nc(-c2ccc(F)cc2)n2ccccc12	growth	93.6% (inactive)
O=C1OCC/C1=C\OCCCO/C=C1\CCOC1=O	growth	97.1% (inactive)
Cc1ccc2c(c1)O/C(=C\c1ccc([N+](=O)[O-])o1)C2=O	growth	84.3% (inactive)
NC(N)=N/N=C(/c1ccccc1)c1ccc(Cl)cc1	growth	56.1% (inactive)
CCOC(=O)/C(=C/c1ccccc1)C(=O)c1ccccc1	growth	49.6% (inactive)
NCCCc1nnc(CCC(=O)c2nc3ccccc3[nH]2)o1	growth	90.8% (inactive)
